Target: SARS-CoV-2 Spike protein (Severe acute respiratory syndrome coronavirus 2)
Test: Ternary binding of SARS-CoV-2 Spike protein (293T cells expressing Spike-GFP, IgG-AF647, flow cytometry)
Type: cell-based
Conditions: […]; IgG-AF647 10 μg/ml; repeat values/batches listed separately; read-out: SARS-CoV-2 Ternary binding EC50
Positions of bridges follow the written chain, without caps; N, C: chain ends.
Quick list: EC50 per entry.
Give the value, in units of nM, as a plain number.

[[record]]
substance = "DKEWILQKIYEIMRLLDELGHAEASMRVSDLIYEFMKKGDERLLEEAERLLEEVERGQAPGQAPDCAWHLGELVWCT-NH2 (disulfide 66-76) [Compound 174]"
readout_label = "EC50"
recorded_result = 0.14


Record Ac-DKEWILQKIYEIMRLLDELGHAEASMRVSDLIYEFMKKGDERLLEEAERLLEEVERPASPASPASPASDCAWHLGELVWCT (disulfide 70-80) [Compound 165] , field EC50: 0.11

Record Ac-DKEWILQKIYEIMRLLDELGHAEASMRVSDLIYEFMKKGDERLLEEAERLLEEVEREAAAKEAAAKDCAWHLGELVWCT-NH2 (disulfide 68-78) [Compound 146] , field EC50: 0.02

Record DKEWILQKIYEIMRLLDELGHAEASMRVSDLIYEFMKKGDERLLEEAERLLEEVEREAAAKEAAAKDCAWHLGELVWCT-NH2 (disulfide 68-78) [Compound 173] , field EC50: 0.04

Record Ac-DKEWILQKIYEIMRLLDELGHAEASMRVSDLIYEFMKKGDERLLEEAERLLEEVERGQAPGQAPDCAWHLGELVWCT-NH2 (disulfide 66-76) [Compound 147] , field EC50: 0.02
